Test: NCI Yeast Anticancer Drug Screen. Data for the rad50EPP+ strain (AID 151);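 note: 0% = growth of vehicle-treated control cultures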
Details: S. cerevisiae rad50 mutant strain, at 1.2 µM, hits give high values
About 79,000 compounds went through this panel and 15% of them were active in at least one assay; those are over-represented in the sample as a whole.
Observation type: growth inhibition (%)
Numbers only, in %.

Fill in growth inhibition for each of the 6 compounds listed.
1. Cc1c2cccc(Sc3ccccc3)c2c2c3c(cccc13)[S+](c1ccccc1)C2 (stereo not drawn)
2. CCOC(=O)/C(=C\c1ccc(C#N)cc1)C(C)=O
3. CC(=O)ON=C1C=CC(=C(C#N)c2ccc(Cl)cc2)C=C1
4. CCN(CC)CCOc1cc(C)c2cc(Cc3ccccc3)ccc2n1
5. CCOC(=O)c1cc([N+](=O)[O-])c(Sc2ncnc3nc[nH]c23)c([N+](=O)[O-])c1
6. O=[N+]([O-])c1cc[n+]([O-])cc1

Reply:
1. 4
2. -8
3. 19
4. 0
5. -8
6. 1
